The reported measurements were obtained from ChEMBL document CHEMBL1123540.

tested on: Nucleic Acid; test: Inhibitory concentration against ethidium bromide binding to DNA [poly(dG-dC)]; assay type: nucleic-acid assay
Quantity kind: C50 (µM)
Please state the figure in µM; there is no need to write the unit.

Please review the entries below; each comes with its answer.
>  <Line notation>
Cl.O=C(CC(CC(=O)NCCCCNc1c2ccccc2nc2ccccc12)Nc1c2ccccc2nc2ccccc12)NCCCCNc1c2ccccc2nc2ccccc12

>  <Unit symbol>
µM

>  <C50>
0.13

$$$$
>  <Line notation>
Cl.O=C(CC(CC(=O)NCCCCCCCNc1c2ccccc2nc2ccccc12)Nc1c2ccccc2nc2ccccc12)NCCCCCCCNc1c2ccccc2nc2ccccc12

>  <Unit symbol>
µM

>  <C50>
0.14

$$$$
>  <Line notation>
Cl.O=C(CCCC(=O)NCCCCCNc1c2ccccc2nc2ccccc12)NCCCCCNc1c2ccccc2nc2ccccc12

>  <Unit symbol>
µM

>  <C50>
0.24

$$$$
>  <Line notation>
Cl.O=C(CC(CC(=O)NCCNc1c2ccccc2nc2ccccc12)Nc1c2ccccc2nc2ccccc12)NCCNc1c2ccccc2nc2ccccc12

>  <Unit symbol>
µM

>  <C50>
0.38

$$$$

Lab note: Cl.O=C(CC(CC(=O)NCCCCCNc1c2ccccc2nc2ccccc12)Nc1c2ccccc2nc2ccccc12)NCCCCCNc1c2ccccc2nc2ccccc12 gave C50 of 0.25
